study.system: Pfs48/45 D3 (Plasmodium falciparum 3D7, UniProt Q8I6T1)
Sequence (Q8I6T1 287-428): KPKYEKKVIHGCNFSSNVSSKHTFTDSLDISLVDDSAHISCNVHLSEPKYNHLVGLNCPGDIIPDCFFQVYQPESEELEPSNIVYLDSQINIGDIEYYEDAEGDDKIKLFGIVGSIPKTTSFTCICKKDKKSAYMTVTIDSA
assay.text: ELISA
measurement.conditions: both partners purified
recorded.endpoint: binding result

RUPA-29 (antibody, V domains shown, human IgG1; source: recombinant human IgG1, 293T (Protein A purified) or GenScript) VH: QVHLVESGGGVVQPGRSLRLSCAASGFTFRSYGMHWVRLAPGKGLEWVTAIWYDGSKKHFADSVKGRFTISRDNSKNTLYLQMSSLRVEDTAVYYCARDFAHGAFYPVDWGRGTLVTVSS VL: SYELTQPPSVSVSPGQTARITCSGDALPKKHAYWYQQKSGQAPVLVIYDDSKRPSGIPERFSGSSSGTMATLSISGAQVEDEAAYYCYSSDTSANYWVFGGGTKLTVL | binds

The values you see were collected from paper PMC9942873.
